Source of measurements: patent US6531478B2

# Assay system: human neuropeptide Y5 receptor (Homo sapiens)
# Construct: expressed in transfected cells; host or cells: HEK-293, stably transfected, G-418 selected; membranes
# Sequence (Q15761 whole entry): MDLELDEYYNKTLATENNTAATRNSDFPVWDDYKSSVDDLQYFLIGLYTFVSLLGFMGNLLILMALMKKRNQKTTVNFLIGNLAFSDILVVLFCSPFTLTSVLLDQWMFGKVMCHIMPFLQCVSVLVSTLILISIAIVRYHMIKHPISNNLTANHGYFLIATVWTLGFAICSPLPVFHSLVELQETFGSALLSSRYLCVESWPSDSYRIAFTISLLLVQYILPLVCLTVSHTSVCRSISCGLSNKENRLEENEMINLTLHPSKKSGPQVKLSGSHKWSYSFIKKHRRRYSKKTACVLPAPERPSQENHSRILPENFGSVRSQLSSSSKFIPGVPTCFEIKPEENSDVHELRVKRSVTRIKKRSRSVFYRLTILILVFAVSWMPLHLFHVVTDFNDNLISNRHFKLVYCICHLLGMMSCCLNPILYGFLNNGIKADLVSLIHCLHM
# Method summary: NPY5 HTS centrifugation assay: competition with 125I-PYY for binding to membranes of NPY5-transfected HEK-293 cells
# Experimental conditions: inhibition of 125I-PYY binding; values in nM; read-out: IC50 hNPY5
Outcome measure: IC50 (nM)
Express your answer in nM, writing the number without its unit.

Consider the compound shown here: `Cc1ccc(-n2nc(-c3ccc(NS(=O)(=O)c4ccc5ccccc5c4)cc3)cc2N)cc1` What is its recorded IC50? 208

// IC50 lookup, key: `COc1ccc(S(=O)(=O)Nc2ccc(-c3cc(N)n(-c4ccc(C)cc4)n3)cc2)cc1` 15

Data request, read-out IC50, for `Cc1ccc(-n2nc([C@H]3CC[C@H](CNS(=O)(=O)c4ccc5ccccc5c4)CC3)cc2N)cc1` 243

Sample `COc1ccc(S(=O)(=O)Nc2ccc(-c3cc(N)n(-c4ccc(C)cc4)n3)cc2)cc1OC` — what was its IC50? 839
